Tgt: HCV NS3 protease (Hepatitis C virus genotype 1a, UniProt P27958)
Construct: more particularly HCV NS3 proteases
Sequence (P27958 1027-1208): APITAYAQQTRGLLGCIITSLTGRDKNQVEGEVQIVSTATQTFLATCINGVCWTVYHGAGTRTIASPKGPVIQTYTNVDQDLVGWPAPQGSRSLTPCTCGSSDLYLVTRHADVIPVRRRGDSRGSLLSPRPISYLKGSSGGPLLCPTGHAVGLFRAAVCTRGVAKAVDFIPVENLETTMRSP
Test details: Enzyme inhibition of HCV NS3 serine protease (cleavage of peptide substrate / EDVV AbuC-p-nitroanilide, with or without NS4A)
Format: biochemical
Test context: Enzyme inhibition data; Ki from rate vs [inhibitor] plots, Morrison tight binding competitive inhibition fit; 30 C, pH 7.8; read-out: Ki
Starred links: 1 amine or outer side, 2 acyl side, 3 side chain; linkers in the order of their positions; H or OH if unused. Non-standard residues stand in square brackets, D forms with d. Residues, ends and D or L forms follow the SMILES beside them. Groups on a side chain read outwards from the residue. ξ: configuration not given here. *: point of attachment. ξ(3-Amino-2-oxopentanoyl) = CCC(N[*:1])C(=O)C(=O)[*:2]; Hydrocinnamoyl = O=C(CCc1ccccc1)*; Pyrazinecarbonyl = O=C(c1cnccn1)*; NH(3-Cl-phenyl) = Clc1cccc(N*)c1; X26 = Clc1ccc(-c2ncc(C*)s2)cc1; X28 = c1ccc(Oc2cccc(N*)c2)cc1; X36 = c1ccc(-c2ccc(C*)cc2)cc1; Hyp = O=C(O)[CH]1C[CH](O)CN1; X21 = FC(F)(F)Oc1cccc(C*)c1; X27 = Fc1cc2c(c(C*)c1)OCOC2; X31 = Clc1ccc2scc(C*)c2c1; X17 = c1nc2ccc(N*)cc2s1; 2Abz = Nc1ccccc1C(=O)O; Abu = CC[CH](N)C(=O)O; X38 = CC(C)c1ccccc1N*; X8 = O=C(CCN1CCCCC1)*; CO = O=C([*:1])[*:2]; X29 = Fc1ccc(C*)cc1F; Bz = O=C(c1ccccc1)*; Bn = c1ccc(C*)cc1

| Molecule | Ki |
| --- | --- |
| CCC(C=O)NC(=O)C1CC(OCc2cc(F)cc3c2OCOC3)CN1C(=O)C(NC(=O)C(NC(=O)c1cnccn1)C(C)C)C(C)C (centres unmarked) [Compound 8] (Pyrazinecarbonyl-VV[Hyp](X27)[Abu]-aldehyde; configuration not given here) | 1 to 100 µM |
| CCC(C=O)NC(=O)C1CC(OCc2ccccc2)CN1C(=O)C(NC(=O)CCc1ccccc1)C(C)C (centres unmarked) [Compound 147] (Hydrocinnamoyl-Val-[Hyp](Bn)-[Abu]-aldehyde; configuration not given here) | > 100 µM |
| CCC(C=O)NC(=O)C1CC(OC(=O)Nc2cccc(Cl)c2)CN1C(=O)C(NC(=O)C(NC(=O)c1cnccn1)C(C)C)C(C)C (centres unmarked) [Compound 32] (Pyrazinecarbonyl-VV[Hyp]([CO-NH(3-Cl-phenyl)])[Abu]-aldehyde; configuration not given here) | 1 to 100 µM |
| CCC(C=O)NC(=O)C1CC(OCc2ccccc2)CN1C(=O)C(NS(=O)(=O)Cc1ccccc1)C(C)C (centres unmarked) | > 100 µM |
| CCC(C=O)NC(=O)C1CC(OC(=O)Nc2cccc(Oc3ccccc3)c2)CN1C(=O)C(NC(=O)C(NC(=O)c1cnccn1)C(C)C)C(C)C (centres unmarked) [Compound 53] (Pyrazinecarbonyl-VV[Hyp]([CO-X28])[Abu]-aldehyde; configuration not given here) | 1 to 100 µM |
| CCC(C=O)NC(=O)C1CC(OCc2cccc(OC(F)(F)F)c2)CN1C(=O)C(NC(=O)C(NC(=O)c1cnccn1)C(C)C)C(C)C (centres unmarked) [Compound 9] (Pyrazinecarbonyl-VV[Hyp](X21)[Abu]-aldehyde; configuration not given here) | 1 to 100 µM |
| CCC(C=O)NC(=O)C1CC(OC(=O)c2ccccc2)CN1C(=O)C(NC(=O)C(NC(=O)c1cnccn1)C(C)C)C(C)C (centres unmarked) [Compound 28] (Pyrazinecarbonyl-VV[Hyp](Bz)[Abu]-aldehyde; configuration not given here) | 1 to 100 µM |
| CCC(C=O)NC(=O)C1CC(OCc2csc3ccc(Cl)cc23)CN1C(=O)C(NC(=O)C(NC(=O)c1cnccn1)C(C)C)C(C)C (centres unmarked) [Compound 23] (Pyrazinecarbonyl-VV[Hyp](X31)[Abu]-aldehyde; configuration not given here) | 1 to 100 µM |
| CCC(C=O)NC(=O)C1CC(OCc2ccccc2)CN1C(=O)C(NC(=O)c1c(-c2ccccc2Cl)noc1C)C(C)C (centres unmarked) | > 100 µM |
| CCC(C=O)NC(=O)C1CC(OC(=O)Nc2ccccc2C(C)C)CN1C(=O)C(NC(=O)C(NC(=O)c1cnccn1)C(C)C)C(C)C (centres unmarked) [Compound 54] (Pyrazinecarbonyl-VV[Hyp]([CO-X38])[Abu]-aldehyde; configuration not given here) | 1 to 100 µM |
| CCC(C=O)NC(=O)C(CC(C)C)NC(=O)C(NC(=O)C(NC(=O)CCN1CCCCC1)C(C)C)C(C)C (centres unmarked) [Compound 97] (X8-VVL[Abu]-aldehyde; configuration not given here) | 1 to 100 µM |
| CCC(C=O)NC(=O)C1CC(OCc2ccc(F)c(F)c2)CN1C(=O)C(NC(=O)C(NC(=O)c1cnccn1)C(C)C)C(C)C (centres unmarked) [Compound 22] (Pyrazinecarbonyl-VV[Hyp](X29)[Abu]-aldehyde; configuration not given here) | 1 to 100 µM |
| CCC(C=O)NC(=O)C1CC(OCc2cnc(-c3ccc(Cl)cc3)s2)CN1C(=O)C(NC(=O)C(NC(=O)c1cnccn1)C(C)C)C(C)C (centres unmarked) [Compound 24] (Pyrazinecarbonyl-VV[Hyp](X26)[Abu]-aldehyde; configuration not given here) | 1 to 100 µM |
| CCC(NC(=O)C(CC(C)C)NC(=O)C(NC(=O)C(NC(=O)C(CC(=O)O)NC(=O)C(CCC(=O)O)NC(C)=O)C(C)C)C(C)C)C(=O)C(=O)O (centres unmarked) [Compound 101] (Ac-EDVVL-{ξ(3-Amino-2-oxopentanoyl)}; configuration not given here) | < 1 µM |
| CCC(C=O)NC(=O)C1CC(OC(=O)Nc2ccc3ncsc3c2)CN1C(=O)C(NC(=O)C(NC(=O)c1cnccn1)C(C)C)C(C)C (centres unmarked) [Compound 35] (Pyrazinecarbonyl-VV[Hyp]([CO-X17])[Abu]-aldehyde; configuration not given here) | 1 to 100 µM |
| CCC(C=O)NC(=O)C1CC(OC(=O)Nc2ccccc2C(=O)OC)CN1C(=O)C(NC(=O)C(NC(=O)c1cnccn1)C(C)C)C(C)C (centres unmarked) [Compound 55] (Pyrazinecarbonyl-VV[Hyp]([CO-2Abz-OMe])[Abu]-aldehyde; configuration not given here) | 1 to 100 µM |
| CCC(C=O)NC(=O)C1CC(OCc2ccc(-c3ccccc3)cc2)CN1C(=O)C(NC(=O)C(NC(=O)c1cnccn1)C(C)C)C(C)C (centres unmarked) [Compound 2] (Pyrazinecarbonyl-VV[Hyp](X36)[Abu]-aldehyde; configuration not given here) | 1 to 100 µM |
